// data source = patent US5773423A

subject-of-test: A2 receptors from rat striatal membranes (Rattus norvegicus, UniProt P30543)
Construct: Rat cerebral cortical and striatal membranes were prepared; from tissue; host or cells: rat striatal membranes
Sequence (P30543 whole entry): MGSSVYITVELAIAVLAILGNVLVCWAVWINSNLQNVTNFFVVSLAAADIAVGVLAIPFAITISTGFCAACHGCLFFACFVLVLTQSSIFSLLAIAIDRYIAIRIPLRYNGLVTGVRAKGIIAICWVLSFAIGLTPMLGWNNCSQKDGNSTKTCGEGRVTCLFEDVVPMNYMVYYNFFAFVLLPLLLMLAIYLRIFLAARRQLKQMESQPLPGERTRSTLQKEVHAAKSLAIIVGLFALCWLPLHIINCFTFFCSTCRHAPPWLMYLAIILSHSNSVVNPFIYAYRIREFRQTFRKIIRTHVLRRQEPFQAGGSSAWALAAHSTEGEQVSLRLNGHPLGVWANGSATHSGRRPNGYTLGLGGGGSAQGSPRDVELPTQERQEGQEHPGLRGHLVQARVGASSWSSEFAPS
protocol: Radioligand binding at A2 (A2a) receptors, displacement of [3H]CGS 21680 (or [3H]NECA with 50 nM CPA) from rat striatal membranes
test-conditions: read-out: percent displacement of radioligand at A2
property-measured: inhibition at 100 µM (%)

Please review the following examples before continuing.
* CCCn1c(=O)c2c(ncn2[C@@H]2O[C@H](CO)[C@@H](O)[C@H]2O)n(CCC)c1=O [Compound 118, reference compound] | 32
* Cn1c(=O)c2c(ncn2[C@@H]2O[C@H](CO)[C@@H](O)[C@H]2O)n(C)c1=O [Compound 117, theophylline-7-riboside, reference compound] | 2

(I) CCCCCn1c(=O)c2c(ncn2[C@@H]2O[C@H](C(=O)NC)[C@@H](O)[C@H]2O)n(CCCCC)c1=O [Example 68]
(II) CCCCCCn1c(=O)c2c(ncn2[C@@H]2O[C@H](CO)[C@@H](O)[C@H]2O)n(CCCCCC)c1=O [Example 64]
# input # query: argmin of inhibition at 100 µM over I and II # respond with the chosen item's label
# output I
